tested on: T24 bladder cell carcinoma; assay: Relative colony forming efficiency (Example 17, Table 13); assay type: cell-based, human; details: averages of 2-8 determinations
Oligonucleotides are written 5' to 3', each unit as a sugar letter and its base; * is a phosphorothioate linkage, no mark a phosphodiester; rarer units and linkages stand in square brackets, end groups in braces. Plain capitals give the bases only. d = 2'-deoxy (DNA)
Consider the following sequences; for each one, report its Reduced relative colony forming efficiency, T24 (% inhibition of colony forming ability).
Number plus unit, in that order.

# annotated cases, reported Reduced relative colony forming efficiency, T24 (% inhibition of colony forming ability) shown
q: Look up and report measured Reduced relative colony forming efficiency, T24 (% inhibition of colony forming ability) for this entry: GAACATCAGGCAAGCAAAAT (antisense dG*dA*dA*dC*dA*dT*dC*dA*dG*dG*dC*dA*dA*dG*dC*dA*dA*dA*dA*dT) [AS-II-1006-20]
a: 61.49%

q: Look up and report measured Reduced relative colony forming efficiency, T24 (% inhibition of colony forming ability) for this entry: GCAAAGGCTACAACACGTTC (antisense dG*dC*dA*dA*dA*dG*dG*dC*dT*dA*dC*dA*dA*dC*dA*dC*dG*dT*dT*dC) [AS-II-861-20]
a: 73.5%

// switching to the query sequence
q: Look up and report measured Reduced relative colony forming efficiency, T24 (% inhibition of colony forming ability) for this entry: TGGCTGTGCTGGTTAAAGGA (antisense dT*dG*dG*dC*dT*dG*dT*dG*dC*dT*dG*dG*dT*dT*dA*dA*dA*dG*dG*dA) [AS-II-1659-20]
a: 74.09%

====

system: T24 bladder cell carcinoma; experiment: Relative colony forming efficiency (Example 17, Table 13); format: cell-based, human; conditions: averages of 2-8 determinations
Oligonucleotides are written 5' to 3', each unit as a sugar letter and its base; * is a phosphorothioate linkage, no mark a phosphodiester; rarer units and linkages stand in square brackets, end groups in braces. Plain capitals give the bases only. d = 2'-deoxy (DNA)
Consider the following substances; for each one, report its Reduced relative colony forming efficiency, T24 (% inhibition of colony forming ability).
One number for each entry, in %.

q: Fill in: Reduced relative colony forming efficiency, T24 (% inhibition of colony forming ability) on T24 bladder cell carcinoma, entry C*CCC*TCAC*TCC*AGC*AGC*CT*T (antisense dC*dCdCdC*dTdCdAdC*dTdCdC*dAdGdC*dAdGdC*dCdT*dT) [AS-II-109-20]
a: 24.89

q: Fill in: Reduced relative colony forming efficiency, T24 (% inhibition of colony forming ability) on T24 bladder cell carcinoma, entry GCGAGCGGGACACGGAGGGA (antisense dG*dC*dG*dA*dG*dC*dG*dG*dG*dA*dC*dA*dC*dG*dG*dA*dG*dG*dG*dA) [AS-II-201-20]
a: 96.2

q: Fill in: Reduced relative colony forming efficiency, T24 (% inhibition of colony forming ability) on T24 bladder cell carcinoma, entry TATCTCTCCTCGGGTTTCAG (antisense dT*dA*dT*dC*dT*dC*dT*dC*dC*dT*dC*dG*dG*dG*dT*dT*dT*dC*dA*dG) [AS-II-549-20]
a: 45.46

q: Fill in: Reduced relative colony forming efficiency, T24 (% inhibition of colony forming ability) on T24 bladder cell carcinoma, entry GGGAGAGCATAGTGGAGGCG (antisense dG*dG*dG*dA*dG*dA*dG*dC*dA*dT*dA*dG*dT*dG*dG*dA*dG*dG*dC*dG) [AS-II-185-20]
a: 21.94

q: Fill in: Reduced relative colony forming efficiency, T24 (% inhibition of colony forming ability) on T24 bladder cell carcinoma, entry TGCCTCCGACCCTTCCCA (antisense dT*dG*dC*dC*dT*dC*dC*dG*dA*dC*dC*dC*dT*dT*dC*dC*dC*dA) [AS-II-16-18]
a: 25.74

Okay, here is my list. What is Reduced relative colony forming efficiency, T24 (% inhibition of colony forming ability) for each of these?
1. GCTATTATCGCCGCCGTGAG (antisense dG*dC*dT*dA*dT*dT*dA*dT*dC*dG*dC*dC*dG*dC*dC*dG*dT*dG*dA*dG) [AS-II-1773-20]
2. ATCGCCGCCGTG (antisense dA*dT*dC*dG*dC*dC*dG*dC*dC*dG*dT*dG) [AS-II-1775-12]
3. GGTTTTCTCTCAGCAGCGGC (antisense dG*dG*dT*dT*dT*dT*dC*dT*dC*dT*dC*dA*dG*dC*dA*dG*dC*dG*dG*dC) [AS-II-404-20]
4. GCACGGGCGACC (antisense dG*dC*dA*dC*dG*dG*dG*dC*dG*dA*dC*dC) [AS-II-127-12]
5. TTAGTCTTTCCTTCCAGTGA (antisense dT*dT*dA*dG*dT*dC*dT*dT*dT*dC*dC*dT*dT*dC*dC*dA*dG*dT*dG*dA) [AS-II-1254-20]
6. TTAGAAGTCAGCATCCAAGG (antisense dT*dT*dA*dG*dA*dA*dG*dT*dC*dA*dG*dC*dA*dT*dC*dC*dA*dA*dG*dG) [AS-II-1345-20]
7. GCGGCGGGGGTTTTCTCTCA (antisense dG*dC*dG*dG*dC*dG*dG*dG*dG*dG*dT*dT*dT*dT*dC*dT*dC*dT*dC*dA) [AS-II-412-20]

a:
1: 15.19; 2: 85.54; 3: 84.26; 4: 50.63; 5: 41.53; 6: 51.26; 7: 22.2

Okay, here is my list. What is Reduced relative colony forming efficiency, T24 (% inhibition of colony forming ability) for each of these?
1. AACCGGAAAAGAAAATGCCT (antisense dA*dA*dC*dC*dG*dG*dA*dA*dA*dA*dG*dA*dA*dA*dA*dT*dG*dC*dC*dT) [AS-II-890-20]
2. CGCGCGCTCCCGGCCCTTCC (listed as DNA, chemistry not fully specified) [AS-II-75-20]

a:
[82.07, 95.83]

Okay, here is my list. What is Reduced relative colony forming efficiency, T24 (% inhibition of colony forming ability) for each of these?
1. CCCAGGACACTACACAAGCC (antisense dC*dC*dC*dA*dG*dG*dA*dC*dA*dC*dT*dA*dC*dA*dC*dA*dA*dG*dC*dC) [AS-II-2026-20]
2. GAGAAATAAAATGAAACGGC (antisense dG*dA*dG*dA*dA*dA*dT*dA*dA*dA*dA*dT*dG*dA*dA*dA*dC*dG*dG*dC) [AS-II-2164-20]
3. GCTCCCACATATGAAAACTC (antisense dG*dC*dT*dC*dC*dC*dA*dC*dA*dT*dA*dT*dG*dA*dA*dA*dA*dC*dT*dC) [AS-II-2229A-20]
4. ATTAAAATCTGCGTTGAAGC (antisense dA*dT*dT*dA*dA*dA*dA*dT*dC*dT*dG*dC*dG*dT*dT*dG*dA*dA*dG*dC) [AS-II-1700-20]
5. TCGCTCCACCAAGTTTTCAT (antisense dT*dC*dG*dC*dT*dC*dC*dA*dC*dC*dA*dA*dG*dT*dT*dT*dT*dC*dA*dT) [AS-II-619-20]
6. CCCCTTCAGCGGCG (antisense dC*dC*dC*dC*dT*dT*dC*dA*dG*dC*dG*dG*dC*dG) [AS-II-253-14]
7. TCAGGCAAGCAAAATCACAG (antisense dT*dC*dA*dG*dG*dC*dA*dA*dG*dC*dA*dA*dA*dA*dT*dC*dA*dC*dA*dG) [AS-II-1001-20]

a:
1: 95.46; 2: 61.84; 3: 50.34; 4: 70.94; 5: 86.3; 6: 19.41; 7: 86.11

Okay, here is my list. What is Reduced relative colony forming efficiency, T24 (% inhibition of colony forming ability) for each of these?
1. GGCCCAGATCACCCCTAAAT (antisense dG*dG*dC*dC*dC*dA*dG*dA*dT*dC*dA*dC*dC*dC*dC*dT*dA*dA*dA*dT) [AS-II-2128-20]
2. ACCCTTCCCATTGGCTGCGC (antisense dA*dC*dC*dC*dT*dT*dC*dC*dC*dA*dT*dT*dG*dG*dC*dT*dG*dC*dG*dC) [AS-II-6-20]
3. ATGGTACTCGATGGGGAAGA (chemistry not given here) [AS-II-439-20]

a:
83.74
73.55
67.84

====

tested on: A549 lung cell carcinoma; assay: Relative colony forming efficiency (Example 17, Table 13); assay type: cell-based, human; settings: averages of 2-8 determinations
Oligonucleotides are written 5' to 3', each unit as a sugar letter and its base; * is a phosphorothioate linkage, no mark a phosphodiester; rarer units and linkages stand in square brackets, end groups in braces. Plain capitals give the bases only. d = 2'-deoxy (DNA)
Property: Reduced relative colony forming efficiency, A549 (% inhibition of colony forming ability) (%)
Give bare numbers, in %.

# annotated cases, reported Reduced relative colony forming efficiency, A549 (% inhibition of colony forming ability) shown
q: Look up and report measured Reduced relative colony forming efficiency, A549 (% inhibition of colony forming ability) for this entry: AAACGGCTTCTCACACATAT (antisense dA*dA*dA*dC*dG*dG*dC*dT*dT*dC*dT*dC*dA*dC*dA*dC*dA*dT*dA*dT) [AS-II-2151-20]
a: 79.19

q: Look up and report measured Reduced relative colony forming efficiency, A549 (% inhibition of colony forming ability) for this entry: CAAATGGGTTCTCTACTCTG (antisense dC*dA*dA*dA*dT*dG*dG*dG*dT*dT*dC*dT*dC*dT*dA*dC*dT*dC*dT*dG) [AS-II-1217-20]
a: 91.49

q: Look up and report measured Reduced relative colony forming efficiency, A549 (% inhibition of colony forming ability) for this entry: ATAAAGTCAAATGGGTTCTC (antisense dA*dT*dA*dA*dA*dG*dT*dC*dA*dA*dA*dT*dG*dG*dG*dT*dT*dC*dT*dC) [AS-II-1224-20]
a: 55.06

q: Look up and report measured Reduced relative colony forming efficiency, A549 (% inhibition of colony forming ability) for this entry: AS-II-114420 (antisense dG*dT*dA*dT*dT*dG*dC*dT*dT*dC*dA*dT*dT*dA*dG*dA*dG*dT*dG*dC)
a: 61.81

q: Look up and report measured Reduced relative colony forming efficiency, A549 (% inhibition of colony forming ability) for this entry: TTTTAACTGGCTGTGCTGGT (antisense dT*dT*dT*dT*dA*dA*dC*dT*dG*dG*dC*dT*dG*dT*dG*dC*dT*dG*dG*dT) [AS-II-1666-20]
a: 54.82

Okay, here is my list. What is Reduced relative colony forming efficiency, A549 (% inhibition of colony forming ability) for each of these?
1. AS-II-218220 (antisense dC*dG*dT*dT*dG*dA*dG*dG*dA*dA*dA*dA*dT*dA*dC*dA*dG*dT*dG*dA)
2. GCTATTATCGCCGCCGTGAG (antisense dG*dC*dT*dA*dT*dT*dA*dT*dC*dG*dC*dC*dG*dC*dC*dG*dT*dG*dA*dG) [AS-II-1773-20]
3. GGCCCAGATCACCCCTAAAT (antisense dG*dG*dC*dC*dC*dA*dG*dA*dT*dC*dA*dC*dC*dC*dC*dT*dA*dA*dA*dT) [AS-II-2128-20]
4. TATCGCCGCCGTGAGTACAA (antisense dT*dA*dT*dC*dG*dC*dC*dG*dC*dC*dG*dT*dG*dA*dG*dT*dA*dC*dA*dA) [AS-II-1768-20]
5. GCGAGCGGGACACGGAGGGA (antisense dG*dC*dG*dA*dG*dC*dG*dG*dG*dA*dC*dA*dC*dG*dG*dA*dG*dG*dG*dA) [AS-II-201-20]
6. AS-II-1560.20 (antisense dG*dT*dA*dA*dG*dT*dC*dA*dC*dA*dG*dC*dC*dA*dG*dC*dC*dA*dG*dG)
7. CGGCGGCGTGTTCTCCTTGT (antisense dC*dG*dG*dC*dG*dG*dC*dG*dT*dG*dT*dT*dC*dT*dC*dC*dT*dT*dG*dT) [AS-II-280-20]

a:
1. 90.97
2. 70.11
3. 87.31
4. 86.8
5. 90.55
6. 84.19
7. 61.81
